# Target: recombinant LRRK2 kinase (Homo sapiens, UniProt Q5S007)
# Sequence (Q5S007 whole entry): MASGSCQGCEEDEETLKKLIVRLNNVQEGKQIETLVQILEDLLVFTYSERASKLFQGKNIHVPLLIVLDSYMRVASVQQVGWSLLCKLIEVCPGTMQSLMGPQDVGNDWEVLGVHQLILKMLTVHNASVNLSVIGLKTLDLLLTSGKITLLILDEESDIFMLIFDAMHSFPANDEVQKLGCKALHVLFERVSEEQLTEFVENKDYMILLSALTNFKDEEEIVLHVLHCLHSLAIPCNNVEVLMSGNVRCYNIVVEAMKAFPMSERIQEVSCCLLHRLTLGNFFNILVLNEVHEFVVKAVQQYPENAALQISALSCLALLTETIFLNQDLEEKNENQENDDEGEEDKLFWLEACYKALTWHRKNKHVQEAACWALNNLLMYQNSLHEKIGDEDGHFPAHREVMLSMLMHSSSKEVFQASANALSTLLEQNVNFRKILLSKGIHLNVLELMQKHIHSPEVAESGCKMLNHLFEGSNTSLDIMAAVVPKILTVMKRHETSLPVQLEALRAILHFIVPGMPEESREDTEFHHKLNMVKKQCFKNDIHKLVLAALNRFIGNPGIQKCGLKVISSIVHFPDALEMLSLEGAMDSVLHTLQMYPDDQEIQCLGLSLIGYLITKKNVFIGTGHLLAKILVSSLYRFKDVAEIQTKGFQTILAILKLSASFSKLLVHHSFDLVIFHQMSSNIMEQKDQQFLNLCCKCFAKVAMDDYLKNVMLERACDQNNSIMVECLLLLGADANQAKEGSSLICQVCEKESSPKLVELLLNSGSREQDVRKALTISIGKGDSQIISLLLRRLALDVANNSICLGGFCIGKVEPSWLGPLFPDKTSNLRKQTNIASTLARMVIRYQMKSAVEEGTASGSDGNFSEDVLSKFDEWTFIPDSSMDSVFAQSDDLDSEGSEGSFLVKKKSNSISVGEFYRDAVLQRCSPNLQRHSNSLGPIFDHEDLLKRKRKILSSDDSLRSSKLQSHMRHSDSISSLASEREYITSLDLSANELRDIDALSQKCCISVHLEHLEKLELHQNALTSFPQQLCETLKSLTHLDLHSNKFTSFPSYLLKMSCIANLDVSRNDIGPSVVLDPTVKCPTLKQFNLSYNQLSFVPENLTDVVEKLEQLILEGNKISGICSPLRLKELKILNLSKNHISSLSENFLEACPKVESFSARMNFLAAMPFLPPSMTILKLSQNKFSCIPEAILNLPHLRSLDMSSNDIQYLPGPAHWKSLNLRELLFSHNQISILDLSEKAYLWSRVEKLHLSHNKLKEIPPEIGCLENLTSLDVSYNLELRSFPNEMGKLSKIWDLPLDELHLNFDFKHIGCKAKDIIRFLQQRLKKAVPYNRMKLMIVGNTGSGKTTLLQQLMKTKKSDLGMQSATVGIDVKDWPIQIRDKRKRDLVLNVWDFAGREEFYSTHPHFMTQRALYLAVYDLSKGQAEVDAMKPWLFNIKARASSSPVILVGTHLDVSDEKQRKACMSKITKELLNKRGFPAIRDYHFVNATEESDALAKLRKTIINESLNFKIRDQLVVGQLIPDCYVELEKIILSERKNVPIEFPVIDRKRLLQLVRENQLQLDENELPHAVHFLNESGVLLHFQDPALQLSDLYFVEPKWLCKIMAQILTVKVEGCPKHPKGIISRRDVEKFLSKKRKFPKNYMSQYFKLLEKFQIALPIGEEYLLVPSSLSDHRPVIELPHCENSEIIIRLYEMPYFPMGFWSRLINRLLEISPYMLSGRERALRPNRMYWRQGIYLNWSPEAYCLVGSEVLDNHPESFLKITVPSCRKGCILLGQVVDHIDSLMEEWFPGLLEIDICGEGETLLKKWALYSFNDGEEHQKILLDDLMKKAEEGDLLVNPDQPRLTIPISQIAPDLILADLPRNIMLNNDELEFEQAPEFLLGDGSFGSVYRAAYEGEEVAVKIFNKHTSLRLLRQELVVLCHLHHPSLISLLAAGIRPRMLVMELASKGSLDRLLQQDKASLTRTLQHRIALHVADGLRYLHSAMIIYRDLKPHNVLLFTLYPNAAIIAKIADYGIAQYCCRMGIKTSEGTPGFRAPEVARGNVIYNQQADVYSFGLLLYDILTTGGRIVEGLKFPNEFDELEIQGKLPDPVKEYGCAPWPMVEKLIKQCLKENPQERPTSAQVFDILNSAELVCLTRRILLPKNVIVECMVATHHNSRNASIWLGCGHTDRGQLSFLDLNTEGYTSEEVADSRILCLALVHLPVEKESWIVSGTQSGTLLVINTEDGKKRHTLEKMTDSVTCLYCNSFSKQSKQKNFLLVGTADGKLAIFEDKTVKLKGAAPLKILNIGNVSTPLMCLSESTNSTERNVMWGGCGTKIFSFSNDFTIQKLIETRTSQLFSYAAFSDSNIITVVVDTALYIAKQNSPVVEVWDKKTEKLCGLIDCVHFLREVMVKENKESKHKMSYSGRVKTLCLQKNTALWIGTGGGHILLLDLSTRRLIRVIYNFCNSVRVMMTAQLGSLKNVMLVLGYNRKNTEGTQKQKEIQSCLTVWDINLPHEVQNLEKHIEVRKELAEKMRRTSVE
# Protocol details: LRRK2 kinase inhibition (Kinase-Glo luminescence)
# Condition notes: IC50 grade; 25 μmol/L ATP, LRRKtide, 30° C. 2 hours; read-out: Enzyme activity LRRK2
pIC50: −log10 of the molar value.
Some compounds, each annotated with its measured pIC50.
Measured parameter: pIC50

# Compound, Target, Measured parameter, Result
rows = [
    ("CCNc1nc(Nc2c(C)nn(C(C)(C)C#N)c2C)nc2[nH]cc(C#N)c12", "recombinant LRRK2 kinase (Homo sapiens, UniProt Q5S007)", "pIC50", "< 7.00"),
    ("CCNc1nc(Nc2cnn([C@H]3CCN(C4COC4)C[C@@H]3F)c2Cl)nc2[nH]cc(C(F)(F)F)c12", "recombinant LRRK2 kinase (Homo sapiens, UniProt Q5S007)", "pIC50", "7.00 to 8.00"),
    ("COc1cc(C(=O)N2CCOCC2)ccc1Nc1nc(OC2CCOC2)c2c(C#N)c[nH]c2n1 (stereo not shown)", "recombinant LRRK2 kinase (Homo sapiens, UniProt Q5S007)", "pIC50", "> 8.00"),
    ("CNc1nc(Nc2c(C)nn(C(C)(C)C#N)c2C)nc2[nH]cc(C#N)c12", "recombinant LRRK2 kinase (Homo sapiens, UniProt Q5S007)", "pIC50", "< 7.00"),
]
